system-under-test: Human FXR full length (Homo sapiens)
Construct: Human FXR full length and RXR full length was obtained from Ronald Evans' laboratory; expressed in transfected cells; host or cells: CV-1 cells
measurement-protocol: FXR activity screen, luciferase reporter in transfected CV-1 cells
Assay type: cell-based
reported-conditions: first round; CV-1 cells, 24 hours; read-out: 1st RND EC50
measure-name: EC50 (nM)
Numbers only here, please. The scale is nM.

Missing value: EC50, Human FXR full length (Homo sapiens), entry COC(=O)/C=C/c1cncc(N(Cc2cccc3cc4cnn(C)c4cc23)C(=O)C2CCCCC2)c1 . Fill in?
1820

Then this compound: [2H]C(c1ccc(-c2ccc(N(C)C)cc2)cc1Cl)N(C(=O)C1CCCCC1)c1cccc(/C=C/C(=O)OC)c1 (centres unmarked)
366

Same thing, different compound: COC(=O)/C=C/c1cccc(N(Cc2ccc(-c3ccc(N(C)C)cc3)cc2Cl)C(=O)[C@@H]2C[C@@H]3CC[C@H]2C3)c1
697

Then what about the compound COC(=O)/C=C/c1cccc(N(Cc2ccc(-c3ccc4c(cnn4C)c3)cc2)C(=O)c2ccccc2)c1 ?
752

What do you get for [2H]C(c1ccc(-c2ccc(N(C)C)cc2)cc1Cl)N(C(=O)[C@@H]1C[C@@H]2CC[C@H]1C2)c1cncc(/C=C/C(=O)OC)c1 (some centres unmarked) ?
4600

----------
system-under-test: Human FXR full length (Homo sapiens)
Construct: Human FXR full length and RXR full length was obtained from Ronald Evans' laboratory; expressed in transfected cells; host or cells: CV-1 cells
measurement-protocol: FXR activity screen, luciferase reporter in transfected CV-1 cells
Type: cell-based
reported-conditions: second round; CV-1 cells, 24 hours; read-out: 2nd RND EC50
I'd be grateful if you could share measured pEC50 for these entries.
pEC50 here is simply -log10 of the concentration when that concentration is written in mol/L.

Which pEC50 value belongs to COC(=O)/C=C/c1cccc(N(Cc2cccc3ccc(N(C)C)cc23)C(=O)C2CCCCC2)c1 [NSSK00001] ?
7.25

Then this molecule: COC(=O)/C=C/c1cccc(N(Cc2ccc(-c3ccc4c(cnn4C)c3)cc2F)C(=O)c2ccccc2)c1 [NSSK00057]
6.10

Subsequent entry: COC(=O)/C=C/c1cc(F)cc(N(Cc2ccc(-c3ccc(N(C)C)cc3)cc2)C(=O)[C@@H]2C[C@@H]3CC[C@H]2C3)c1 [NSSK00102]
6.48

Now give it for [2H]C(c1ccc(-c2ccc(N(C)C)cc2)cc1F)N(C(=O)c1ccccc1)c1cccc(/C=C/C(=O)OC)c1 (centres unmarked) [NSSK00079] too.
6.22

Could you do the same for [2H]C(c1ccc(-c2ccc3c(cnn3C)c2)cc1)N(C(=O)C1CCCCC1)c1cncc(/C=C/C(=O)OC)c1 (centres unmarked) [NSSK00034] , please?
5.57

One more molecule: [2H]C(c1ccc(-c2ccc(N(C)C)cc2)cc1)N(C(=O)[C@@H]1C[C@@H]2CC[C@H]1C2)c1cccc(/C=C/C(=O)OC)c1 (some centres unmarked) [NSSK00107]
6.06

Further, for [2H]C(c1ccc(-c2ccc3c(cnn3C)c2)cc1Cl)N(C(=O)C1CCCCC1)c1cncc(/C=C/C(=O)OC)c1 (centres unmarked) [NSSK00095] ?
5.82

What do you have for COC(=O)/C=C/c1cccc(N(Cc2ccc(-c3ccc(N(C)C)cc3)cc2Cl)C(=O)c2ccccc2)c1 [NSSK00055] ?
5.85

Same for [2H]C(c1ccc(-c2ccc(N(C)C)cc2)cc1)N(C(=O)C1CCCCC1)c1cccc(/C=C/C(=O)OC)c1 (centres unmarked) [NSSK00077]
6.82

# repeat for [2H]C(c1ccc(-c2ccc(N(C)C)cc2)cc1)N(C(=O)C1CCCCC1)c1cncc(/C=C/C(=O)OC)c1 (centres unmarked) [NSSK00062]
6.03

Param item: [2H]C(c1ccc(-c2ccc(N(C)C)cc2)cc1F)N(C(=O)[C@@H]1C[C@@H]2CC[C@H]1C2)c1cc(F)cc(/C=C/C(=O)OC)c1 (some centres unmarked) [NSSK00110]
6.76

Okay, and [2H]C(c1ccc(-c2ccc3c(cnn3C)c2)cc1F)N(C(=O)[C@@H]1C[C@@H]2CC[C@H]1C2)c1cccc(/C=C/C(=O)OC)c1 (some centres unmarked) [NSSK00070] ?
5.77

Param item: COC(=O)/C=C/c1cc(F)cc(N(Cc2ccc(-c3ccc4c(cnn4C)c3)cc2Cl)C(=O)c2ccccc2)c1 [NSSK00100]
5.74

Same for COC(=O)/C=C/c1cccc(N(Cc2ccc(-c3ccc4c(cnn4C)c3)cc2Cl)C(=O)C2CCN(C)CC2)c1 [NSSK00075]
3.19

----------
system-under-test: Human FXR full length (Homo sapiens, UniProt Q96RI1)
Construct: Human FXR full length and RXR full length was obtained from Ronald Evans' laboratory; expressed in transfected cells; host or cells: CV-1 cells
measurement-protocol: FXR activity screen, luciferase reporter in transfected CV-1 cells
Assay type: cell-based
reported-conditions: retest; read-out: EC50 (retested)
measure-name: EC50 (nM)
Just the number please, in nM, no unit attached.

EC50 for [2H]C(c1ccc(-c2ccc(N(C)C)cc2)cc1F)N(C(=O)C1CCCCC1)c1cccc(/C=C/C(=O)OC)c1 (centres unmarked) [NSSK00027] ?
118

Input [2H]C(c1ccc(-c2ccc3c(cnn3C)c2)cc1)N(C(=O)C1CCCCC1)c1cc(F)cc(/C=C/C(=O)OC)c1 (centres unmarked) [NSSK00096]
220

// same read-out, input: [2H]C(c1ccc(-c2ccc(N(C)C)cc2)cc1)N(C(=O)C1CCCCC1)c1cccc(/C=C/C(=O)OC)c1 (centres unmarked) [NSSK00077]
98

Subsequent entry: [2H]C(c1ccc(-c2ccc3c(cnn3C)c2)cc1F)N(C(=O)C1CCCCC1)c1cccc(/C=C/C(=O)OC)c1 (centres unmarked) [NSSK00089]
366

Check [2H]C(c1ccc(-c2ccc(N(C)C)cc2)cc1F)N(C(=O)[C@@H]1C[C@@H]2CC[C@H]1C2)c1cc(F)cc(/C=C/C(=O)OC)c1 (some centres unmarked) [NSSK00110] too.
46

----------
Exercise: for every item that follows, state its recorded pEC50.
system-under-test: Human FXR full length (Homo sapiens, UniProt Q96RI1)
Construct: Human FXR full length and RXR full length was obtained from Ronald Evans' laboratory; expressed in transfected cells; host or cells: CV-1 cells
Sequence (Q96RI1 1-476 isoform Q96RI1-1): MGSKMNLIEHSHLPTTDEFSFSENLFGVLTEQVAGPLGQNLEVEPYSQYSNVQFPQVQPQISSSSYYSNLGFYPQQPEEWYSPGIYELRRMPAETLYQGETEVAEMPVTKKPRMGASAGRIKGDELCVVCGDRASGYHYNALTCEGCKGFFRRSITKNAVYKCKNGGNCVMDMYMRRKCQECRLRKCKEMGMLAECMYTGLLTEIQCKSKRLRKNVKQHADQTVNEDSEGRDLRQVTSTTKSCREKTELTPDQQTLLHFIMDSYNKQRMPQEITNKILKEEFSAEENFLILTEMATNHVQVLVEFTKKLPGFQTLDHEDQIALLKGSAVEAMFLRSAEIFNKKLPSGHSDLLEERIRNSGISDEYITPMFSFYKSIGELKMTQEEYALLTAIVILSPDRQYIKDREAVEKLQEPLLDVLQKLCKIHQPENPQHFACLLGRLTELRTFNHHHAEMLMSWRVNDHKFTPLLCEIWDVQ
Sequence (P19793 1-462 partner): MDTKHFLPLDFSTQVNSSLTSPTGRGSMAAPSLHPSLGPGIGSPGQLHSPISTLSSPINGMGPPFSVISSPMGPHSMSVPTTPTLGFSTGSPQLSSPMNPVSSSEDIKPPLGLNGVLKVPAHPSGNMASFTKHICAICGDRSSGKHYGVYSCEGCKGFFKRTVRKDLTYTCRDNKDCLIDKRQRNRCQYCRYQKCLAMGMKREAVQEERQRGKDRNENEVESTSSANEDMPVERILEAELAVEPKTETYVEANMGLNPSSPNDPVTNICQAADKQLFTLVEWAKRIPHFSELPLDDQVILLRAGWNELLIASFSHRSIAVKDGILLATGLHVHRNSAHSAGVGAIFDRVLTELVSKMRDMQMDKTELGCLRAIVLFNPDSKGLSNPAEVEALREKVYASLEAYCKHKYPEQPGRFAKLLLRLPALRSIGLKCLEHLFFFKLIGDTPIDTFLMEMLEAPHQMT
measurement-protocol: FXR activity screen, luciferase reporter in transfected CV-1 cells
Type: cell-based
reported-conditions: second round; CV-1 cells, 24 hours; read-out: 2nd RND EC50
When answering, recall that pEC50 equals minus log10 of the concentration in mol/L, and write that number alone.

Returns the measured pEC50 for the input molecule. Input: [2H]C(c1ccc(-c2ccc(N(C)C)cc2)cc1Cl)N(C(=O)C1CCCCC1)c1cccc(/C=C/C(=O)OC)c1 (stereo not shown)
6.60

Cool, now COC(=O)/C=C/c1cccc(N(Cc2ccc(-c3ccc4c(cnn4C)c3)cc2Cl)C(=O)C2CCCCC2)c1
6.20

Queued: [2H]C(c1ccc(-c2ccc3c(cnn3C)c2)cc1F)N(C(=O)c1ccccc1)c1cccc(/C=C/C(=O)OC)c1 (stereo not shown) [NSSK00038]
5.72

Entry [2H]C(c1ccc(-c2ccc3c(cnn3C)c2)cc1Cl)N(C(=O)[C@@H]1C[C@@H]2CC[C@H]1C2)c1cccc(/C=C/C(=O)OC)c1 (stereo partly shown) please
6.37

What about this molecule? [2H]C(c1ccc(-c2ccc(N(C)C)cc2)cc1)N(C(=O)c1ccccc1)c1cc(F)cc(/C=C/C(=O)OC)c1 (stereo not shown)
6.21

Record: COC(=O)/C=C/c1cccc(N(Cc2ccc(-c3ccc(N(C)C)cc3)cc2)C(=O)[C@@H]2C[C@@H]3CC[C@H]2C3)c1
6.21

Subsequent entry: [2H]C(c1ccc(-c2ccc(N(C)C)cc2)cc1Cl)N(C(=O)[C@@H]1C[C@@H]2CC[C@H]1C2)c1cc(F)cc(/C=C/C(=O)OC)c1 (stereo partly shown)
6.26
